List of pIC50 tested on FGFR4 (GST-FGFR4(388-802)) (Homo sapiens).
Sequence (P22455 388-802): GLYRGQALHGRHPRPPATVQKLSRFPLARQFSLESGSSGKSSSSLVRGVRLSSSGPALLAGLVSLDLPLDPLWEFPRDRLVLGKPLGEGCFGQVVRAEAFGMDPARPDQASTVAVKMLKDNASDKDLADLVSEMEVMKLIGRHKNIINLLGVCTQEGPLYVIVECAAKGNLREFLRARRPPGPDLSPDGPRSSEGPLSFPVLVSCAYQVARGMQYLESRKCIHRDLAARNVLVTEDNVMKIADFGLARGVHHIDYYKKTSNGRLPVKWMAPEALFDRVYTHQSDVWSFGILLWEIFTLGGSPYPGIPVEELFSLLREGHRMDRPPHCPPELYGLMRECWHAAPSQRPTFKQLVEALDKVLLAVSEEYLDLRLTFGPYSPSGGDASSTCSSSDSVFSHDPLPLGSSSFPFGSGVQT
Note: pIC50 values are expressed as the negative base-10 logarithm of concentration in M.

Check out these entries, answers already filled in.
CC(C)Oc1cc(NC(=O)N(C)c2ccc(CN3CCN(C)CC3)c(C=O)n2)ncc1C#N: 7.54
COCCNc1cc(NC(=O)N(CC2CCOC2)c2cccc(C=O)n2)ncc1C#N (racemic): 8.72
CC(C)Oc1cc(NC(=O)N(C)c2ccc(C(F)F)c(C=O)n2)ncc1C#N: 8.72
CCN(C(=O)Nc1cc(NCCOC)c(C#N)cn1)c1ccc(-c2cnn(C)c2)c(C=O)n1: 8.00
CC(C)Nc1cc(NC(=O)N(C)c2ccc(-c3cnn(C)c3)c(C=O)n2)ncc1C#N: 8.44

Query: Form field: pIC50 recorded for `CN(C(=O)Nc1cc(NCC(C)(C)O)c(C#N)cn1)c1ccc(-c2cnn(C)c2)c(C=O)n1` with FGFR4 (GST-FGFR4(388-802)) (Homo sapiens) (enter value)
Result: 8.24

###

Biological target: BaF3-Tel-FGFR4 cells (TEL fused to cytoplasmic domain of FGFR4) (Homo sapiens, UniProt P22455)
Sequence (P22455 with tags, fused parts or gaps): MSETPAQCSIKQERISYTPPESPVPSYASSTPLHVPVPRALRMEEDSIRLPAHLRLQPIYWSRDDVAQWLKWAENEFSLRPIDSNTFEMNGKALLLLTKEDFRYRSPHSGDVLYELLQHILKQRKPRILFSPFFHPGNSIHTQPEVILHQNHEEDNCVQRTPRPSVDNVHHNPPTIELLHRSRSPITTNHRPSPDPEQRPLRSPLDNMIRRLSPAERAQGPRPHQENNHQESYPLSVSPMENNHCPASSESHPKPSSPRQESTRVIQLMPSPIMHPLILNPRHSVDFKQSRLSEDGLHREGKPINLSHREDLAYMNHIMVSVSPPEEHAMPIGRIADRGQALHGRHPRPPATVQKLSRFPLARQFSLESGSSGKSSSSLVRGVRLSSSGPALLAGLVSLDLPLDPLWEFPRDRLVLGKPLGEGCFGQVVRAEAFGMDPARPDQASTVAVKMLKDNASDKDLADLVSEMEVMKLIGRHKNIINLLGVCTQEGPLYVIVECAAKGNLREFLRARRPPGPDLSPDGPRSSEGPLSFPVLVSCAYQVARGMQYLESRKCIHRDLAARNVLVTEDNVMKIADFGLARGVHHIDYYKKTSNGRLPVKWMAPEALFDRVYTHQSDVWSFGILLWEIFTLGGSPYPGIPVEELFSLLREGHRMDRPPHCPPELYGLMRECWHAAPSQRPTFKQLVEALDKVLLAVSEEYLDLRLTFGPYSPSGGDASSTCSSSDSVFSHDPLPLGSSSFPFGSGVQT
Test: In vitro cellular kinase assay for FGFR4 (BaF3-Tel-FGFR4, MSD capture ELISA of tyrosine phosphorylation)
Conditions: 1 hour incubation
ASSAY_METRIC: log10(IC50) (log10 of the value in nM)
Response schema: value (number) is log10 of IC50 in units of nM.

Answered examples (7):
CCN(C(=O)Nc1cc(NC(C)C)c(C#N)cn1)c1ccc(-c2cnn(C)c2)c(C=O)n1: 1.23
COCCNc1cc(Nc2nccn2-c2ccc(-c3cnn(C)c3)c(C=O)n2)ncc1C(F)(F)F: 2.75
CCN(C(=O)Nc1cc(NCCOC)c(C#N)cn1)c1ccc(-c2cnn(C)c2)c(C=O)n1: 1.11
COC1CCN(Cc2ccc(N(C)C(=O)Nc3cc(OC(C)C)c(C#N)cn3)nc2C=O)C1 (racemic): 2.70
CN(C(=O)Nc1cc(NCC(C)(C)O)c(C#N)cn1)c1ccc(-c2cnn(C)c2)c(C=O)n1: 1.66
COCCNc1cc(NC(=O)N(C)c2ccc(C(F)F)c(C=O)n2)ncc1C#N: 0.89
COCCNc1cc(NC(=O)N(CC2CCOC2)c2ccc(CO)c(C=O)n2)ncc1C#N (racemic): 2.37

Field: next compound
Query: Requested read-out: log10(IC50). Entry: `COCCNc1cc(NC(=O)N(C)c2ccc(-c3cnn(C)c3)c(C=O)n2)ncc1C#N`
Result: 1.72

###

These records show IC50 for FGFR2 (406-821) (Homo sapiens).

See these solved cases before continuing.
COCCNc1cc(Nc2ccnn2-c2ccc(-c3cnn(C)c3)c(C=O)n2)ncc1C(F)(F)F: > 10 µM
CC(C)Oc1cc(NC(=O)Nc2nccc(C=O)n2)ncc1C#N: > 10 µM
CC(C)Oc1cc(NC(=O)N(C)c2ccc(C(F)F)c(C=O)n2)ncc1C#N: > 10 µM
COCCNc1cc(NC(=O)N(C)c2ccc(C(F)F)c(C=O)n2)ncc1C#N: > 10 µM

Next up:
Query: Hi! What's the reported IC50 for COCCNc1cc(NC(=O)N(CC2CCOC2)c2cccc(C=O)n2)ncc1C#N (racemic) on FGFR2 (406-821) (Homo sapiens)?
Result: > 10 µM

The reported numbers originate from patent US10189813B2.
